# TESTED SYSTEM: T1, Hu41BB N&E.3 (human, UniProt Q07011 18-255)
# T1 construct: Human-to-dog mutant of the human 4-1BB extracellular domain, expressed on transduced 300-19 cells
# T1 chain: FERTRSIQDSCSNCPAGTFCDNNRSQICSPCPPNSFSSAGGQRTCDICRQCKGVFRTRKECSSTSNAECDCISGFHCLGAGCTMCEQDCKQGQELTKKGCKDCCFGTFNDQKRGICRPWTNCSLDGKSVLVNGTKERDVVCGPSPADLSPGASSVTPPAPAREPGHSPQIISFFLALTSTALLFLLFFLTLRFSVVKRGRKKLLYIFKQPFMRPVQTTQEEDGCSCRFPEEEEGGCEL
# ASSAY INFO: FACS, 100 nM antibody, transduced 300-19 cell pools

{"BINDER": "MOR-7483 (IgG2) (antibody, V domains shown, also called 7483_G2) VH: QVQLVQSGAEVKKPGESLKISCKGSGYSFSTYWISWVRQMPGKGLEWMGKIYPGDSYTNYSPSFQGQVTISADKSISTAYLQWSSLKASDTAMYYCARGYGIFDYWGQGTLVTVSS VL: DIELTQPPSVSVAPGQTARISCSGDNIGDQYAHWYQQKPGQAPVVVIYQDKNRPSGIPERFSGSNSGNTATLTISGTQAEDEADYYCSTYTFVGFTTVFGGGTKLTVLG", "binding result": "binds"}
{"BINDER": "MOR-7480 (IgG1) (antibody, V domains shown, Human IgG1 format, lambda light chain) VH: QVQLVQSGAEVKKPGESLKISCKGSGYSFSTYWISWVRQMPGKGLEWMGKIYPGDSYTNYSPSFQGQVTISADKSISTAYLQWSSLKASDTAMYYCARGYGIFDYWGQGTLVTVSS VL: DIELTQPPSVSVAPGQTARISCSGDNIGDQYAHWYQQKPGQAPVVVIYQDKNRPSGIPERFSGSNSGNTATLTISGTQAEDEADYYCATYTGFGSLAVFGGGTKLTVL", "binding result": "binds"}
{"BINDER": "MOR-7480.2 (IgG1) (antibody, V domains shown, Human IgG1 format) VH: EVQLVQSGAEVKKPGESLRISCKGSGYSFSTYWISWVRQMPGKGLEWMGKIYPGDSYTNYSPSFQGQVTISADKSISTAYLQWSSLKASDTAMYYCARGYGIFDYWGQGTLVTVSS VL: SYELTQPPSVSVSPGQTASITCSGDNIGDQYAHWYQQKPGQSPVVVIYQDKNRPSGIPERFSGSNSGNTATLTISGTQAMDEADYYCATYTGFGSLAVFGGGTKLTVL", "binding result": "binds"}

Where do these numbers come from? They come from patent US20180194851A1.
